- system_tested: complement fragment iC3b (UniProt P01024)
- assay: SPR
Documented pKd across a set of binders
Quick note: pKd means taking -log10 of the concentration in moles per liter.

• GST-αX I-domain (domain or fragment) RQEQDIVFLIDGSGSISSRNFATMMNFVRAVISQFQRPSTQFSLMQFSNKFQTHFTFEEFRRSSNPLSLLASVHQLQGFTYTATAIQNVVHRLFHASYGARRDAAKILIVITDGKKEGDSLDYKDVIPMADAAGIIRYAIGVGLAFQNRNSWKELNDIASKPSQEHIFKVEDFDALKDIQNQLKEKIFAIEG = 5.97
• GST-αX I-domain D249M (domain or fragment) RQEQDIVFLIDGSGSISSRNFATMMNFVRAVISQFQRPSTQFSLMQFSNKFQTHFTFEEFRRSSNPLSLLASVHQLQGFTYTATAIQNVVHRLFHASYGARRMAAKILIVITDGKKEGDSLDYKDVIPMADAAGIIRYAIGVGLAFQNRNSWKELNDIASKPSQEHIFKVEDFDALKDIQNQLKEKIFAIEG = 6.31
• GST-αX I-domain K243S/E244H (domain or fragment) RQEQDIVFLIDGSGSISSRNFATMMNFVRAVISQFQRPSTQFSLMQFSNKFQTHFTFEEFRRSSNPLSLLASVHQLQGFTYTATAIQNVVHRLFHASYGARRDAAKILIVITDGKSHGDSLDYKDVIPMADAAGIIRYAIGVGLAFQNRNSWKELNDIASKPSQEHIFKVEDFDALKDIQNQLKEKIFAIEG = 6.25

# context switch: different binder, same pKd
Form field pKd, entry GST-αX I-domain K242A/K243A (domain or fragment) RQEQDIVFLIDGSGSISSRNFATMMNFVRAVISQFQRPSTQFSLMQFSNKFQTHFTFEEFRRSSNPLSLLASVHQLQGFTYTATAIQNVVHRLFHASYGARRDAAKILIVITDGAAEGDSLDYKDVIPMADAAGIIRYAIGVGLAFQNRNSWKELNDIASKPSQEHIFKVEDFDALKDIQNQLKEKIFAIEG : 5.54
